experiment: qHTS of pediatric cancer cell lines to identify multiple opportunities for drug repurposing: Primary screen for A673 cells (AID 1347092); details: A673 Ewing sarcoma viability, CellTiter-Glo ATP luminescence, 48 h; series mostly up to 46 µM; note: % is set by controls: 0 for no effect and ±100 for the full control effect; nearly all actives have a fitted effect of over 45% in size
Records with an inconclusive call do not appear. Active and inactive are the calls of the source. Calls come from the whole dose curve; as a rule, active = well fitted cell-killing curve with a large enough effect; inconclusive = small, poorly fitted or top-dose-only effect; inactive = no such curve, though single readings can be large or run the other way.
MEASURED_PARAMETER: outcome

COc1cc(CC(C)N)cc(OC)c1OC (stereo not drawn): inactive
COc1cc(CCN)cc(OC)c1OC: inactive
CC(C)=CC1C(C(=O)OCN2C(=O)C3=C(CCCC3)C2=O)C1(C)C (stereo not drawn): inactive

====

target: Cytochrome P450 2C9 (Homo sapiens) (UniProt P11712); assay: Cytochrome P450 family 2 subfamily C member 9 (CYP2C9) small molecule antagonists: luciferase biochemical (cell-free) qHTS assay (AID 1645842); conditions: P450-Glo CYP2C9 enzyme assay, luciferin luminescence; series mostly up to 57.4 µM; note: nearly all actives have a fitted effect of over 55% in size
Sequence (P11712 whole entry, looked up): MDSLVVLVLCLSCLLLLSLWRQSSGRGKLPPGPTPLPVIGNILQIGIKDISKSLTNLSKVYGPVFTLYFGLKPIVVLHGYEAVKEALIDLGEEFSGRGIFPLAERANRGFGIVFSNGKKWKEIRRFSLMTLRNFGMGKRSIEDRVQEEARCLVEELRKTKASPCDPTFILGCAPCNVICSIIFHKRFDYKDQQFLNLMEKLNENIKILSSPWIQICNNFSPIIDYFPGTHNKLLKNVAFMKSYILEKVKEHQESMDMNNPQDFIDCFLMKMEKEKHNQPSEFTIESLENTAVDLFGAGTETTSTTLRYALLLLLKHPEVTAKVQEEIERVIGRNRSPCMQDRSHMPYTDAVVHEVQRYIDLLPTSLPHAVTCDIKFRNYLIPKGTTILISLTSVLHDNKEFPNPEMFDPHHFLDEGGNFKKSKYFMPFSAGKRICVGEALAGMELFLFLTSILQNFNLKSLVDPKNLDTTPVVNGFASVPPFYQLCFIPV
Results filed as inconclusive are left out. Active and inactive are the calls of the source. Calls come from the whole dose curve; as a rule, active = well fitted inhibition curve with a large enough effect in the repeat runs; inconclusive = weak or mixed curves; inactive = no such curve, though single readings can be large or run the other way.
# valid calls are yes (active), no (inactive); nothing else

Completed entries (count: 6):
CC(C)NC(C)C: no
Nc1ccccc1C(=O)O: no
O=c1[nH]oc2c1CCNC2: no
Cc1ncsc1CCCl: no
CCN(CC)CCc1c[nH]c2ccccc12: no
CC(C)=CC1C(C(=O)OCN2C(=O)C3=C(CCCC3)C2=O)C1(C)C (configuration not stated): yes

Continue with the molecule presented below.
Asked: Write down the call the test reported for this molecule. Item: C[C@]12CC[C@@H]3c4ccc(OC(=O)N(CCCl)CCCl)cc4CC[C@H]3[C@@H]1CC[C@@H]2O
Given back: no

====

test: Drug repurposing screens with cells derived from glioblastoma tumor samples (AID 1345199); conditions: GBM patient neurospheres viability, ATP luminescence, 48 h; tumour line A; note: potency is the fitted concentration of half-maximal effect; nearly all actives have a fitted effect of over 40% in size
Inconclusive results are not listed. The source made the active and inactive calls. The call rests on the fitted dose curve; in most records, active means well fitted inhibition curve with a large enough effect; inconclusive means small, poorly fitted or top-dose-only effect; inactive means flat fitted curve, though single readings scatter.
molecules and their reported Potency

# annotated cases, reported Potency shown
CN1C[C@H](C(=O)N[C@]2(C)O[C@@]3(O)[C@@H]4CCCN4C(=O)[C@H](Cc4ccccc4)N3C2=O)C=C2c3cccc4[nH]cc(c34)C[C@H]21: 14.1 µM (active)
C[N+]1(CCF)[C@@H]2CC[C@H]1CC(OC(=O)C(O)(c1ccccc1)c1ccccc1)C2 (some centres undefined): 11.2 µM (active)
C[C@H]1[C@@H]2Cc3ccc(O)cc3[C@@]1(C)CCN2C: 112 µM (active)
c1ccc(CN2CCNCC2)cc1: 126 µM (active)
COc1cccc(C(=O)CCN[C@@H](C)[C@H](O)c2ccccc2)c1: 28.2 µM (active)

Asked: # query: Potency of entry C[C@]1(O)CC[C@H]2[C@@H]3CCC4=CC(=O)CC[C@]4(C)[C@@]3(F)[C@@H](O)C[C@@]21C
Given back: 35.5 µM (active)

Asked: # query: Potency of entry C[C@]12CCC(=O)C=C1CC[C@@H]1[C@H]3CC[C@](C)(O)[C@@]3(C)CC[C@@H]12
Given back: 39.8 µM (active)

Asked: # query: Potency of entry CCCN(CCC)C(=O)Cc1c(-c2ccc(Cl)cc2)nc2ccc(Cl)cn12
Given back: 10 µM (active)

Asked: # query: Potency of entry Clc1ccc(C(c2ccc(Cl)cc2)C(Cl)(Cl)Cl)cc1
Given back: 11.2 µM (active)

====

Assay: NS1 protein of Zika virus - qHTS assay to identify small molecule inhibitors in human HEK 293 cells (AID 1347053);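 note: plate controls were infected untreated cells for no effect and uninfected cells for full effect; nearly all actives have a fitted effect of over 55% in size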
Settings: HEK293 ZIKV MR766 infection, NS1 TR-FRET, 24 h; series mostly up to 46.1 µM
Source text: National Center for Advancing Translational Sciences [NCATS] Johns Hopkins University School of Medicine The non-structural 1 (NS1) protein of zika virus is known to associate with the viral replication complex. This cell-based TR-FRET ZIKV NS-1 assay measures the increased NS-1 protein in human HEK 293 cells after a 24-hour Zika virus infection by a TR-FRET assay readout. […]
Records with an inconclusive call do not appear. Calls of active or inactive are those of the source. The call rests on the fitted dose curve; in most records, active means well fitted inhibition curve with a large enough effect; inconclusive means small, poorly fitted or top-dose-only effect; inactive means no such curve, though single readings can be large or run the other way.
MEASURED_PARAMETER: outcome

# annotated cases, reported outcome shown
CN1CC[C@]23c4c5ccc(O)c4O[C@H]2[C@@H](O)C=C[C@H]3[C@H]1C5: inactive
c1ccc(N2CCNCC2)cc1: inactive
COc1cc(CCN)cc(OC)c1OC: inactive
CNCC(=O)c1ccc(O)c(O)c1: inactive
COc1cc(OC)c(OC)cc1C=O: inactive
O=C(O)CCCc1ccc(N(CCCl)CCCl)cc1: inactive
Clc1cccc(SC2CCNCC2)n1: inactive
O=C(N/N=C/c1ccc([N+](=O)[O-])o1)c1cc([N+](=O)[O-])cc([N+](=O)[O-])c1O: inactive

Asked: # query: outcome of entry CC(C)=CC1C(C(=O)OCN2C(=O)C3=C(CCCC3)C2=O)C1(C)C (configuration not stated)
Given back: inactive

Asked: # query: outcome of entry CCCN(CCC)C(=O)Cc1c(-c2ccc(Cl)cc2)nc2ccc(Cl)cn12
Given back: inactive

Asked: # query: outcome of entry COc1c2c(cc3c1OCO3)CCN(C)C2
Given back: inactive

Asked: # query: outcome of entry NC(=O)CS(=O)C(c1ccccc1)c1ccccc1 (configuration not stated)
Given back: inactive

====

assay: qHTS of pediatric cancer cell lines to identify multiple opportunities for drug repurposing: Primary screen for MG 63 (6-TG R) cells (AID 1347105); details: MG 63 (6-TG R) viability, CellTiter-Glo, 48 h; series mostly up to 46 µM; note: % is set by controls: 0 for no effect and ±100 for the full control effect; nearly all actives have a fitted effect of over 50% in size
Records with an inconclusive call do not appear. The source made the active and inactive calls. The call rests on the fitted dose curve; in most records, active means well fitted cell-killing curve with a large enough effect; inconclusive means small, poorly fitted or top-dose-only effect; inactive means no such curve, though single readings can be large or run the other way.
# valid calls are active, inactive; nothing else

Completed entries (count: 6):
CC(C)NC(C)C: inactive
CC(C(=O)c1ccccc1)N(C)C (stereo not given): inactive
COc1ccc2c(c1OC)C(=O)O[C@H]2[C@@H]1c2cc3c(cc2CCN1C)OCO3: inactive
Clc1cccc(SC2CCNCC2)n1: inactive
CC(=O)C1CCOC1=O (stereo not given): inactive
Clc1ccccc1N1CCNCC1: inactive

Continue with the compound presented below.
Asked: Write down the call the test reported for this compound. Item: O=c1[nH]c2ccccc2n1C1CCNCC1
Given back: inactive

====

target: Protein phosphatase 1D (Homo sapiens); assay: RapidFire Mass Spectrometry qHTS Assay for Modulators of WT P53-Induced Phosphatase 1 (WIP1) (AID 1347424); details: WIP1 dephosphorylation of phosphopeptide, RapidFire MS; series mostly up to 63 µM;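 note: amount of dephosphorylated VEPPL-S-QETFS peptide product formed by WIP1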
Results filed as inconclusive are left out. Activity calls are given as the source filed them. Calls follow the shape of the dose curve; as a rule, active = well fitted inhibition curve with a large enough effect; inconclusive = small, poorly fitted or top-dose-only effect; inactive = no such curve, though single readings can be large or run the other way.
# valid calls are active, inactive; nothing else

Completed entries (count: 10):
CCC(C)(C)c1ccc(O)cc1: inactive
COc1ccc2c(c1OC)C(=O)O[C@H]2[C@@H]1c2cc3c(cc2CCN1C)OCO3: inactive
O=c1[nH]c2ccccc2n1C1CCNCC1: inactive
CN1C(=O)NC(=O)C(C)(C2=CCCCC2)C1=O (configuration not stated): inactive
O=C1OC(c2ccc(O)c(S(=O)(=O)O)c2)(c2ccc(O)c(S(=O)(=O)O)c2)c2c(Br)c(Br)c(Br)c(Br)c21: active
CC(Cc1ccccc1)NCCn1cnc2c1c(=O)n(C)c(=O)n2C (configuration not stated): inactive
C[C@@H](N)[C@@H](O)c1ccccc1: inactive
C[C@]12CC[C@H]3[C@@H](CC[C@@]45O[C@H]4C(O)=C(C#N)C[C@]35C)[C@H]1CC[C@H]2O: inactive
CCN[C@@H](C)Cc1cccc(C(F)(F)F)c1: inactive
O=C(O)CCCc1ccc(N(CCCl)CCCl)cc1: inactive

Continue with the compound presented below.
Asked: Write down the call the test reported for this compound. Item: CCc1cc2c(s1)-n1c(C)nnc1CN=C2c1ccccc1Cl
Given back: inactive

====

experiment: qHTS assay for small molecule agonists of retinoid X receptor alpha signaling (AID 588544); conditions: HEK293T RXRa-UAS-bla, beta-lactamase reporter, 18 h; 530 nm emission
Records with an inconclusive call do not appear.
MEASURED_PARAMETER: max response (%)
Note: unit % is implicit; provide only the numeric part.

# annotated cases, reported max response shown
O=C1c2ccccc2C(=O)c2ccccc21: -19.1
Nc1ccc([As](=O)(O)O)cc1: -10
Oc1ccc(Cl)cc1: -11.6

Asked: # query: max response of entry [N-]=[N+]=CC(=O)OC[C@H](N)C(=O)O
Given back: -12

Asked: # query: max response of entry COP(=S)(OC)Oc1cc(Cl)c(Cl)cc1Cl
Given back: -2.58

Asked: # query: max response of entry Nc1nc(N)nc(NC2CC2)n1
Given back: -19.4

Asked: # query: max response of entry Nc1ccccc1
Given back: 9.36

====

test system: 7G8; experiment: qHTS profiling for inhibitors of Plasmodium falciparum proliferation (AID 504749); note: nearly all actives have a fitted effect of over 60% in size; details: P. falciparum in erythrocytes, SYBR Green DNA, 72 h; series mostly up to 28.7 µM
Results filed as inconclusive are left out. Active and inactive are the calls of the source. Calls follow the shape of the dose curve; as a rule, active = well fitted inhibition curve with a large enough effect; inconclusive = small, poorly fitted or top-dose-only effect; inactive = flat fitted curve, though single readings scatter.
# valid calls are label 1 = active, label 0 = inactive; nothing else

Completed entries (count: 2):
CCCCCCC(=O)CCCCCC/C=C/C[C@@H](O)[C@H](O)[C@@](N)(CO)C(=O)O: label 0
COc1ccc2c(c1)C13CCCC[C@@H]1C(C2)N(C)CC3 (some centres undefined): label 1

Asked: Write down the call the test reported for this compound. Item: CN1C[C@H](C(=O)N[C@]2(C)O[C@@]3(O)[C@@H]4CCCN4C(=O)[C@H](Cc4ccccc4)N3C2=O)C=C2c3cccc4[nH]cc(c34)C[C@H]21
Given back: label 1

Asked: Write down the call the test reported for this compound. Item: CC(C)(C)NCC(O)c1cc(Cl)c(N)c(C(F)(F)F)c1 (centres undefined)
Given back: label 1

Asked: Write down the call the test reported for this compound. Item: CNC(C)(C)Cc1ccccc1
Given back: label 0

Asked: Write down the call the test reported for this compound. Item: O=c1oc2ccccc2c(O)c1Cc1c(O)c2ccccc2oc1=O
Given back: label 0

Asked: Write down the call the test reported for this compound. Item: O=c1[nH]oc2c1CCNC2
Given back: label 0

Asked: Write down the call the test reported for this compound. Item: CCC(C)(C)c1ccc(O)cc1
Given back: label 0

Asked: Write down the call the test reported for this compound. Item: O=C1CN=C(c2ccccc2)c2cc([N+](=O)[O-])ccc2N1
Given back: label 0

Asked: Write down the call the test reported for this compound. Item: COC1CC(=C(c2cccs2)c2cccs2)C[N+](C)(C)C1 (centres undefined)
Given back: label 1

Asked: Write down the call the test reported for this compound. Item: CC(C)(C)NCC(O)c1ccccc1Cl (centres undefined)
Given back: label 1

Asked: Write down the call the test reported for this compound. Item: CCC1(CC)C(=O)C=CNC1=O
Given back: label 0

Asked: Write down the call the test reported for this compound. Item: Cc1ncsc1CCCl
Given back: label 0

Asked: Write down the call the test reported for this compound. Item: O=C(N/N=C/c1ccc([N+](=O)[O-])o1)c1cc([N+](=O)[O-])cc([N+](=O)[O-])c1O
Given back: label 0

Asked: Write down the call the test reported for this compound. Item: C[C@]12CCC(=O)C=C1CC[C@@H]1[C@@H]2CC[C@]2(C)C(=O)CC[C@@H]12
Given back: label 0

Asked: Write down the call the test reported for this compound. Item: CN1C(=O)C(O)N=C(c2ccccc2)c2cc(Cl)ccc21 (centres undefined)
Given back: label 0

Asked: Write down the call the test reported for this compound. Item: Nc1nc(N)nc(NC2CC2)n1
Given back: label 0

Asked: Write down the call the test reported for this compound. Item: CN1C(=O)NC(=O)C(C)(C2=CCCCC2)C1=O (centres undefined)
Given back: label 0

Asked: Write down the call the test reported for this compound. Item: NNc1ccccc1
Given back: label 0

Asked: Write down the call the test reported for this compound. Item: CCCC(C)(COC(N)=O)COC(N)=O
Given back: label 0

Asked: Write down the call the test reported for this compound. Item: C=CCN1C[C@H](C)N([C@H](c2ccc(C(=O)N(CC)CC)cc2)c2cccc(OC)c2)C[C@H]1C
Given back: label 1

Asked: Write down the call the test reported for this compound. Item: Clc1ccc(C(c2ccc(Cl)cc2)C(Cl)(Cl)Cl)cc1
Given back: label 1
